- Test system: HepG2
- experiment.summary: cytotoxicity call (relative viability < 0.9)
- assay.conditions: 10 µM
In all, about 39,000 compounds went through this assay and about 3,300 (8.5%) were called active. This is one part of a sample in which actives are shown more often than they occur.
Answer with one of the outcomes active, inactive

- compound: "NNC(=O)CNc1ccc2c(c1)OCO2"
  category: "inactive"
- compound: "Cc1noc(C)c1S(=O)(=O)Nc1ccc2c(c1)C(=O)N([C@@H](C)CO)C[C@H](C)[C@@H](CN(C)S(=O)(=O)c1ccc(F)cc1)O2"
  category: "inactive"
- compound: "C[C@@H]1CN([C@@H](C)CO)C(=O)c2c(c3ccccc3n2C)-c2ccccc2CO[C@H]1CN(C)S(=O)(=O)c1ccc(C(F)(F)F)cc1"
  category: "inactive"

Ask: What outcome does the record of this test show for COc1cc2nc(N3CCN(C(=O)C4CCCO4)CC3)nc(N)c2cc1OC.Cl (configuration not stated) ?
Reply: active

Ask: What outcome does the record of this test show for O=C1CSC(/N=C/c2ccccc2O)=NN1 ?
Reply: active

Ask: What outcome does the record of this test show for C[C@H]1CCCCO[C@H](CN(C)S(=O)(=O)c2cn(C)cn2)[C@@H](C)CN([C@@H](C)CO)C(=O)c2cc(NS(=O)(=O)c3cccs3)ccc2O1 ?
Reply: inactive

Ask: What outcome does the record of this test show for C[C@H]1CN([C@@H](C)CO)S(=O)(=O)c2ccc(C#Cc3ccccc3)cc2O[C@H]1CN(C)S(=O)(=O)c1cn(C)cn1 ?
Reply: inactive

Ask: What outcome does the record of this test show for COc1cc2nc(N3CCN(C(=O)c4ccco4)CC3)nc(N)c2cc1OC.Cl ?
Reply: active

Ask: What outcome does the record of this test show for N#CCNC(=O)Cc1ccccc1 ?
Reply: inactive

Ask: What outcome does the record of this test show for COc1cc2nc(N(C)CCCNC(=O)C3CCCO3)nc(N)c2cc1OC.Cl (configuration not stated) ?
Reply: inactive

Ask: What outcome does the record of this test show for C[C@H]1CN([C@@H](C)CO)C(=O)c2c(c3ccccc3n2C)-c2ccccc2CO[C@H]1CN(C)S(=O)(=O)c1ccc(C(F)(F)F)cc1 ?
Reply: inactive

---

- Test system: HepG2
- experiment.summary: cytotoxicity call (relative viability < 0.9)
- assay.conditions: 10 µM
About 3,300 (8.5%) of roughly 39,000 compounds were called active. This is one part of a sample in which actives are shown more often than they occur.
readout.name: cytotoxicity call

Solved entries (count: 6):
- cpd.smiles: "C[C@@H]1CCCCO[C@H](CN(C)C(=O)C2CCCCC2)[C@@H](C)CN([C@@H](C)CO)C(=O)c2cc(NC(=O)Cc3ccccc3)ccc2O1"
  readout.name: "cytotoxicity call"
  recorded.result: "inactive"
- cpd.smiles: "COc1ccc(-c2cc(=O)c3ccccc3o2)cc1"
  readout.name: "cytotoxicity call"
  recorded.result: "inactive"
- cpd.smiles: "COc1ccc(S(=O)(=O)N(C)C[C@@H]2Oc3ccc(NS(=O)(=O)c4ccc(F)cc4)cc3CC(=O)N([C@@H](C)CO)C[C@@H]2C)cc1"
  readout.name: "cytotoxicity call"
  recorded.result: "inactive"
- cpd.smiles: "CCN([NH2+][O-])c1ccc(O)c(O)c1"
  readout.name: "cytotoxicity call"
  recorded.result: "inactive"
- cpd.smiles: "COc1ccc(S(=O)(=O)Nc2ccc3c(c2)C(=O)N([C@H](C)CO)C[C@@H](C)[C@@H](CN(C)S(=O)(=O)c2cn(C)cn2)O3)cc1"
  readout.name: "cytotoxicity call"
  recorded.result: "inactive"
- cpd.smiles: "COc1ccc2c(=O)ccoc2c1"
  readout.name: "cytotoxicity call"
  recorded.result: "inactive"

Batch: cytotoxicity call for all items listed.
1. COc1ccc(S(=O)(=O)N(C)C[C@@H]2OCCCC[C@H](C)Oc3ccc(NC(=O)Nc4ccc(C(F)(F)F)cc4)cc3C(=O)N([C@H](C)CO)C[C@@H]2C)cc1
2. COc1cccc(NC(=O)C[C@H]2CC[C@H]3[C@@H](COc4ccc(NC(=O)C5CCOCC5)cc4C(=O)N3C)O2)c1
3. C[N+](C)(C)CCCCCC[N+](C)(C)C.[Br-].[Br-]
4. COc1ccc(S(=O)(=O)N(C)C[C@H]2OCCCC[C@@H](C)Oc3ccc(NC(=O)Nc4ccc(C(F)(F)F)cc4)cc3C(=O)N([C@H](C)CO)C[C@H]2C)cc1

Reply:
1. inactive
2. inactive
3. inactive
4. active

Batch: cytotoxicity call for all items listed.
1. C[C@H]1CCCCO[C@H](CN(C)C(=O)c2ccccc2)[C@@H](C)CN([C@@H](C)CO)C(=O)c2cc(NS(=O)(=O)c3ccc(Cl)cc3)ccc2O1
2. COc1ccc(S(=O)(=O)N(C)C[C@H]2OCCCC[C@H](C)Oc3ccc(NC(=O)Nc4ccc(C(F)(F)F)cc4)cc3C(=O)N([C@@H](C)CO)C[C@@H]2C)cc1
3. C[C@@H]1CN([C@H](C)CO)C(=O)Cc2cc(NC(=O)CCC(F)(F)F)ccc2O[C@@H]1CN(C)S(=O)(=O)c1ccccc1
4. CCCCCCCCCCCCCCCC[N+](C)(C)C
5. COc1ccc(S(=O)(=O)N(C)C[C@@H]2OCCCC[C@@H](C)Oc3ccc(NC(=O)Nc4ccc(C(F)(F)F)cc4)cc3C(=O)N([C@H](C)CO)C[C@H]2C)cc1
6. COc1ccc(S(=O)(=O)N(C)C[C@H]2OCCCC[C@H](C)Oc3ccc(NC(=O)Nc4ccc(C(F)(F)F)cc4)cc3C(=O)N([C@@H](C)CO)C[C@H]2C)cc1
7. C[C@@H]1CN([C@@H](C)CO)C(=O)Cc2cc(NC(=O)Cc3ccccc3)ccc2O[C@H]1CN(C)S(=O)(=O)c1cccs1

Reply:
["inactive", "inactive", "inactive", "active", "inactive", "inactive", "inactive"]

Batch: cytotoxicity call for all items listed.
1. CO[C@@H]1CN(C)C(=O)c2cc(NC(=O)Nc3cccc(Cl)c3)ccc2OC[C@H](C)N(C(=O)Nc2c(C)noc2C)C[C@@H]1C
2. C[C@H](CO)N1C[C@H](C)[C@H](CN(C)S(=O)(=O)c2cccs2)Oc2ncc(C#Cc3cccc(F)c3)cc2C1=O
3. C[N+](C)(C)C[C@H](O)CC(=O)O
4. N#C/C(=N\O)C(=O)c1ccco1
5. O=C(N/N=C/[C@H](O)[C@@H](O)[C@H](O)[C@H](O)CO)c1ccccn1

Reply:
1: inactive; 2: inactive; 3: inactive; 4: inactive; 5: inactive

Batch: cytotoxicity call for all items listed.
1. C[C@@H]1CN([C@@H](C)CO)C(=O)Cc2cc(NC(=O)Cc3ccccc3)ccc2O[C@@H]1CN(C)S(=O)(=O)c1cccs1
2. O=C(C[C@@H]1C=C[C@@H](NC(=O)Nc2ccc3c(c2)OCO3)[C@@H](CO)O1)NCCCN1CCOCC1
3. COc1ccc2c(-c3ccc(Cl)cc3)c(C)oc2c1
4. COc1ccc(S(=O)(=O)N(C)C[C@H]2OCCCC[C@H](C)Oc3ccc(NC(=O)Nc4ccc(C(F)(F)F)cc4)cc3C(=O)N([C@H](C)CO)C[C@@H]2C)cc1
5. C[C@H](CO)N1C[C@H](C)[C@@H](CN(C)S(=O)(=O)c2ccccc2)Oc2ccc(NC(=O)CCC(F)(F)F)cc2CC1=O
6. C[N+](C)(C)C[C@@H](O)CC(=O)O

Reply:
active
inactive
active
active
inactive
inactive

---

- System: HepG2
- experiment.summary: cytotoxicity call (relative viability < 0.9)
- assay.conditions: 10 µM
The campaign covered roughly 39,000 compounds. About 3,300 (8.5%) were called active. The entries come from a sample that favours actives as a whole.
readout.name: cytotoxicity call

Solved entries (count: 6):
- cpd.smiles: "C[C@H](CO)N1C[C@H](C)[C@@H](CN(C)S(=O)(=O)c2cn(C)cn2)OCCCC[C@H](C)Oc2ccc(NC(=O)CCCN(C)C)cc2C1=O"
  tested.system: "HepG2"
  cytotoxicity call: "inactive"
- cpd.smiles: "O=C1/C(=C/c2cn(-c3ccccc3)nc2-c2ccc(OCc3ccc(Cl)cc3)cc2)SC(=S)N1CCS(=O)(=O)O"
  tested.system: "HepG2"
  cytotoxicity call: "inactive"
- cpd.smiles: "COCC#Cc1ccc2c(c1)O[C@@H](CN(C)C(=O)C1CCOCC1)[C@@H](C)CN([C@H](C)CO)S2(=O)=O"
  tested.system: "HepG2"
  cytotoxicity call: "inactive"
- cpd.smiles: "Cc1ncsc1-c1ccc(CNC(=O)[C@@H]2C[C@@H](O)CN2C(=O)[C@H](C(C)C)N2Cc3ccccc3C2=O)cc1"
  tested.system: "HepG2"
  cytotoxicity call: "inactive"
- cpd.smiles: "C[C@@H]1CCCCO[C@H](CN(C)S(=O)(=O)c2ccc(Cl)cc2)[C@H](C)CN([C@@H](C)CO)C(=O)c2cc(NC(=O)C3CCCCC3)ccc2O1"
  tested.system: "HepG2"
  cytotoxicity call: "inactive"
- cpd.smiles: "O=C(C[C@@H]1CC[C@@H]2[C@H](COC[C@H](O)CN2CC2CCOCC2)O1)N1CCOCC1"
  tested.system: "HepG2"
  cytotoxicity call: "inactive"

Continue with the compound presented below.
Ask: Consider the compound shown here: CO[C@@H]1CN(C)C(=O)c2ccc(NC(=O)C3CC3)cc2OC[C@H](C)N(C(=O)C2CCOCC2)C[C@H]1C What is its recorded cytotoxicity call?
Reply: inactive
